Data origin: PubChem BioAssay

assay: basal S. cerevisiae growth modulation, no modifier, primary screen, OD600, strain BY4716, 24 h, basal condition (AID 1173); conditions: OD600, 24 h, higher = more signal, called active from +8 up or from −8 down
Assay Readout: z-score

molecule="C=CCC(OC(C)=O)[C@@H]1[C@@H](N(Cc2ccc(-c3cccc(C(F)(F)F)c3)o2)C(=O)Cc2ccc(F)cc2)c2cc(OCCCO)ccc2N1C(=O)c1ccc(-c2ccccc2)cc1 (stereo partly specified)" number=-0.0284
molecule="CN1C2C=C(c3ccc(CO)cc3)C(C3C(=O)N(C(N)=O)C(=O)C32)C1c1cccs1 (stereo unspecified)" number=-1.28
molecule=COCCOC(=O)N1C(=O)[C@@]2(c3cc(C#CCNC(N)=O)ccc31)[C@H](c1ccc(OCCO)cc1)N1[C@H](c3ccccc3)[C@H](c3ccccc3)OC(=O)[C@H]1[C@@H]2C(=O)N1CCCCCCC1 number=1.52
molecule=O=C1O[C@H](c2ccccc2)[C@H](c2ccccc2)N2[C@H]1[C@@H](C(=O)Nc1nc3ccccc3s1)[C@]1(C(=O)Nc3ccc(C#CC4=CCCCC4)cc31)[C@H]2c1ccccc1OCCO number=1.86
molecule=CC(C)[Si]1(C(C)C)O[C@@H](c2ccccc2)c2cc(C3CC3)nc(-c3ccc(Oc4ccccc4)cc3)c21 number=-0.225
molecule=COC(=O)c1c(CC[C@@H](CO)NC(=O)N[C@H](Cn2cc(-c3cncn3C)nn2)C(C)C)oc(C(C)=O)c1C(=O)OC number=-0.476
